B1: Death-associated inhibitor of apoptosis 2 (Drosophila melanogaster (Fruit fly)), Q24307 (parent)
chain: MTELGMELESVRLATFGEWPLNAPVSAEDLVANGFFATGNWLEAECHFCHVRIDRWEYGDQVAERHRRSSPICSMVLAPNHCGNVPRSQESDNEGNSVVDSPESCSCPDLLLEANRLVTFKDWPNPNITPQALAKAGFYYLNRLDHVKCVWCNGVIAKWEKNDNAFEEHKRFFPQCPRVQMGPLIEFATGKNLDELGIQPTTLPLRPKYACVDARLRTFTDWPISNIQPASALAQAGLYYQKIGDQVRCFHCNIGLRSWQKEDEPWFEHAKWSPKCQFVLLAKGPAYVSEVLATTAANASSQPATAPAPTLQADVLMDEAPAKEALALGIDGGVVRNAIQRKLLSSGCAFSTLDELLHDIFDDAGAGAALEVREPPEPSAPFIEPCQATTSKAASVPIPVADSIPAKPQAAEAVANISKITDEIQKMSVATPNGNLSLEEENRQLKDARLCKVCLDEEVGVVFLPCGHLATCNQCAPSVANCPMCRADIKGFVRTFLS
partner: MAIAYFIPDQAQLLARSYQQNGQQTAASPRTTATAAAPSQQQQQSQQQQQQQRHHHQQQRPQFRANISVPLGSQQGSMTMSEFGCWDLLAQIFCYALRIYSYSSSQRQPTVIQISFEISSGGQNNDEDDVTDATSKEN

- Variants of: B1
- study conditions: with grim_drome grim
measured metric: effect of a mutation on the interaction

>>> reported_result("C46G")
"with no effect"
>>> reported_result("C249G")
"with no effect"
